System: DU-145
test details: NCI tumour cell line growth inhibition, 48 h
Active and inactive are the calls of the source. Rule as the data show it: active = GI50 up to about 1.1 µM and inactive = higher.
Would you kindly list GI50 for each of these molecules?

Inquiry: For the molecule shown here, O=C1Nc2c(Cl)cccc2/C1=N/Nc1ccccc1[N+](=O)[O-] , give the reported GI50.
Reply text: 16.4 µM (inactive)

Inquiry: Same question, CC(CO)(CBr)COC(=O)c1cc(Br)c(N)c(Br)c1 (centres undefined) this time
Reply text: 48.8 µM (inactive)

Inquiry: Same question, CSc1[nH]nc(N)c1C(=O)Nc1ccccc1 this time
Reply text: > 100 µM (inactive)

Inquiry: Same question, C/C(=N\Nc1ccccc1)C(CN(C)C)C(c1ccccc1)c1c(O)c2ccccc2oc1=O (centres undefined) this time
Reply text: > 100 µM (inactive)

Inquiry: Same question, O=C(CC(=O)Nc1ccccc1Cl)NNC(Sc1ccccc1)c1cc(/N=N/c2ccc(Br)cc2)ccc1O (centres undefined) this time
Reply text: 2.28 µM (inactive)

Inquiry: Same question, CCOc1c(OC)cc(CNNc2nccs2)cc1OC this time
Reply text: 15 µM (inactive)

Inquiry: Same question, CCN(CC)C(=O)Cn1c2ccccc2[n+]2cc(N)ccc12 this time
Reply text: > 100 µM (inactive)

Inquiry: Same question, Cc1cn(C2CC(Br)C(COC(c3ccccc3)(c3ccccc3)c3ccccc3)O2)c(=O)[nH]c1=O (centres undefined) this time
Reply text: 14.5 µM (inactive)

Inquiry: Same question, Cc1nc2ccccc2c(=O)n1-c1n[nH]c2ccccc12 this time
Reply text: > 100 µM (inactive)

* * *

Tested on: CCRF-CEM
test details: NCI tumour cell line growth inhibition, 48 h
Calls of active or inactive are those of the source. Rule as the data show it: active = GI50 up to about 1.1 µM and inactive = higher.
The reply should name one outcome from active, inactive

Inquiry: Status in this test for C=C1C(OC)=C(OC)C(=O)c2[nH]c3c(OC)cc([N+](=O)[O-])cc3c21 ?
Reply text: inactive

Inquiry: Same question, NS(=O)(=O)c1ccc(NC2(C(=O)O)CCCC2)cc1 this time
Reply text: inactive

Inquiry: Same question, Cc1nccn1S(=O)(=O)c1ccc(Cl)cc1 this time
Reply text: inactive

Inquiry: Same question, C=C1[C@@H](C)[C@H]2[C@H](Cc3ccccc3)NC(=O)[C@]23OC(=O)/C=C/[C@H](O)CCC[C@@H](C)C/C=C/[C@H]3[C@@H]1O this time
Reply text: inactive

Inquiry: Same question, Cc1c(-c2nc(N)c(C#N)c(N)c2C#N)c(=O)oc2ccccc12 this time
Reply text: inactive

Inquiry: Same question, N#Cc1nc(-c2ccccc2C(=O)O)oc1N this time
Reply text: inactive

Inquiry: Same question, COc1c(Cl)nc2ccccc2c1N=[N+]=[N-] this time
Reply text: inactive

Inquiry: Same question, COc1ccc(NC(=O)/C(=C/c2ccccc2)C(C)=O)cc1 this time
Reply text: inactive

Inquiry: Same question, Cc1noc2c1C(=O)CCC2 this time
Reply text: inactive

Inquiry: Same question, NC1=NS(=O)(=O)Nc2nc(-c3ccc([N+](=O)[O-])o3)[nH]c21 this time
Reply text: inactive

Inquiry: Same question, Cc1nc2ccccc2c(=O)n1-c1n[nH]c2ccccc12 this time
Reply text: inactive

Inquiry: Same question, CCc1ccccc1NC(=O)c1cccc([N+](=O)[O-])c1O this time
Reply text: inactive

Inquiry: Same question, O=C1c2c(ccc3c2CCC3)CC12Cc1cc3c(cc1C2)CCC3 this time
Reply text: inactive

Inquiry: Same question, Cc1cn([C@H]2C[C@H](N=[N+]=[N-])[C@@H](CO)O2)c(=O)[nH]c1=O this time
Reply text: inactive

Inquiry: Same question, Oc1ccc(CNCc2ccccc2)c2cccnc12 this time
Reply text: active

Inquiry: Same question, C=CCC(C)C12CCNC(Cc3ccc(O)cc31)C2C (centres undefined) this time
Reply text: inactive

Inquiry: Same question, COc1ccc(C2C(C(=O)O)=C(CO)Oc3cc4c(cc32)OCO4)c(OC)c1 (centres undefined) this time
Reply text: inactive

Inquiry: Same question, COc1ccc2[nH]c3c4c(ccc3c2c1)C(=O)C=CC4=O this time
Reply text: active

Inquiry: Same question, CCCCCCCCCC(=O)OCC1(CO)C/C(=C/CC(C(C)C)C(C)C)C(=O)O1 (centres undefined) this time
Reply text: inactive

Inquiry: Same question, COc1ccc(/C(Cl)=C(\C=O)c2ccc(Cl)cc2)cc1OC this time
Reply text: inactive

Inquiry: Same question, O=C(NC1=C(Cl)C(=O)c2ccccc2C1=O)C(=O)c1c(O)c2ccccc2oc1=O this time
Reply text: inactive

Inquiry: Same question, CNC(=O)OCc1cnc([N+](=O)[O-])n1C this time
Reply text: inactive

Inquiry: Same question, O=[N+]([O-])c1ccc(C2=Nn3c(nnc3-c3ccccc3)SC2)o1 this time
Reply text: inactive

Inquiry: Same question, CN(C)CC1(C)CC/C(=C\c2ccc(Cl)cc2)C1=O (centres undefined) this time
Reply text: inactive

Inquiry: Same question, O=C(Nc1cc2c(=O)oc3ccccc3c2oc1=O)c1cccnc1 this time
Reply text: inactive

Inquiry: Same question, CNc1nnc(CCCCCCCCc2nnc(NC)o2)o1 this time
Reply text: inactive

Inquiry: Same question, COc1ccc(-c2c3ccccc3c(-c3ccc(OC)cc3)c3ccccc23)cc1 this time
Reply text: inactive

Inquiry: Same question, O=[N+]([O-])c1c(Br)cc(Br)c2c1Nc1c(ccc(Cl)c1Cl)S2 this time
Reply text: inactive

Inquiry: Same question, CCOC(=O)c1[nH]c(CN(C)Cc2[nH]c(C(=O)OCC)c(C)c2C(=O)OCc2ccccc2)c(C(=O)OCc2ccccc2)c1C this time
Reply text: inactive

# credit: ChEMBL document CHEMBL1201862
